Test: qHTS assay to identify small molecule antagonists of the estrogen related receptor (ERR) signaling pathway from Tox21 library (AID 1224848); also: nearly all actives have a fitted effect of over 50% in size
Details: ERR reporter cell line, luciferase antagonist mode, 18 h; series mostly up to 92.4 µM
Records with an inconclusive call do not appear. The source made the active and inactive calls. Calls follow the shape of the dose curve; as a rule, active = well fitted inhibition curve with a large enough effect in the repeat runs; inconclusive = weak or mixed curves; inactive = no such curve, though single readings can be large or run the other way.
Allowed answers: T for active, F for inactive

# lookup: test call for `ON=C1CCCCC1` F

Outcome logged for `Cc1cccc(O)c1` in this assay: F

Give the logged outcome of this assay for the following molecule: `COc1ccc(Nc2ccccc2)c(C)c1` F

What did the test return for `Nc1ccccc1[N+](=O)[O-]` ? F

Please let me know the test result on file for `CC[C@H](C)C(=O)O[C@H]1C[C@@H](C)C=C2C=C[C@H](C)[C@H](CC[C@@H]3C[C@@H](O)CC(=O)O3)[C@H]21` . F

Test call for this molecule, please: `C[C@H]1C[C@@H]2[C@H]([C@@H](O)C[C@@]3(C)[C@H]2CC[C@]3(O)C(=O)CO)[C@@]2(C)C=CC(=O)C=C12` F

For `OCC(CO)(CBr)CBr` , what call appears in the results of this test? F

Fill in: this test's call for `CC(=O)CC(=O)Nc1ccccc1C` is ___ F

Others:
Assay result, entry `OCCOCCOCCO` — outcome? F

Record lookup: outcome of this test for CCC(O)OC(O)CC (stereo unspecified) ? F

# fetch the recorded call for CCCCC(CC)COC(=O)C(C#N)=C(c1ccccc1)c1ccccc1 (stereo unspecified) here T

====

Target: Cytochrome P450 2C9 (Homo sapiens) (UniProt P11712)
Sequence (P11712 whole entry, looked up): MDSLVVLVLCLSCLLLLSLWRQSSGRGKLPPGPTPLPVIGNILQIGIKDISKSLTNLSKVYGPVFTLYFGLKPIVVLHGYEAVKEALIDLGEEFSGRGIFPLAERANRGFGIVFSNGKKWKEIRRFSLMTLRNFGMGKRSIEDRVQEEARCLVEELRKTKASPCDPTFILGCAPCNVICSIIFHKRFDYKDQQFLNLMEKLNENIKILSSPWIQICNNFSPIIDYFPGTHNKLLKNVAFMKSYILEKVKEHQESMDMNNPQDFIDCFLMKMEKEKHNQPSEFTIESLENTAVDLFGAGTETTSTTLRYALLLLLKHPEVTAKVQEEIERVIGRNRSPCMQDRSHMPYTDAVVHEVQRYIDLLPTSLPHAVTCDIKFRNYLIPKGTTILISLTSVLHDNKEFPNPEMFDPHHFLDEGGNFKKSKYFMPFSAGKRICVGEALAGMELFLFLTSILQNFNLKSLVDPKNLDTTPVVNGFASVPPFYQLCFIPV
Experiment: Cytochrome P450 Family 2 Subfamily C Member 9 (CYP2C9) small molecule antagonists: luciferase reporter qHTS assay (AID 1671198); also: nearly all actives have a fitted effect of over 50% in size
Conditions: P450-Glo CYP2C9 enzyme assay, luciferin luminescence; series mostly up to 115 µM
Inconclusive results are not listed. Active and inactive are the calls of the source. The call rests on the fitted dose curve; in most records, active means well fitted inhibition curve with a large enough effect in the repeat runs; inconclusive means weak or mixed curves; inactive means no such curve, though single readings can be large or run the other way.
Pick one and only one: label 1 = active, label 0 = inactive

Look over these answered cases.
Any idea what this test logged for CCCCC(CC)COC(=O)CCCCC(=O)OCC(CC)CCCC (stereo not given) ? label 1

Test call, this molecule: `CCCCCCCCCCCCOCCO` label 1

Each molecule tested received a call. Report the one for `CC(=O)Nc1ccccc1` . label 0

Fill in: this test's call for `O=C(O)c1ccc(C(=O)O)cc1` is ___ label 0

How did this test come out for `C[Si](O[Si](C)(C)C)O[Si](C)(C)C` ? label 0

In this assay, the call recorded for `O=S(=O)(O)c1ccc2ccccc2c1` was what? label 0

Continuing:
Recorded test outcome, item `Nc1ccccc1[N+](=O)[O-]` label 0

GET /call?item= `C#CCN(C)Cc1ccccc1` returns the recorded outcome of this test. label 0

Name the outcome recorded for `CCCCN(CCCC)CCCC` in the assay. label 1

Kindly provide the recorded test outcome for the following molecule: `O=c1[nH]c(=O)n([C@H]2C[C@H](O)[C@@H](CO)O2)cc1Br` label 0

# outcome recorded in this test, key = `O=S1(=O)CC=CC1` label 0

====

Tested on: thyroid hormone receptor (rat, GH3 cells)
Experiment: qHTS assay to identify small molecule agonists of the thyroid receptor (TR) signaling pathway (AID 743066)
Conditions: GH3.TRE-Luc cells, TR agonist luciferase, 24 h; series mostly up to 83.9 µM
Records with an inconclusive call do not appear. Calls of active or inactive are those of the source. Calls come from the whole dose curve.
assay_readout: outcome

Specify outcome for `CC(C)(N)CO` , system thyroid hormone receptor (rat, GH3 cells). inactive

Print thyroid hormone receptor (rat, GH3 cells) outcome for `CCN(CC)c1ccc(C(=O)c2ccccc2C(=O)O)c(O)c1` . inactive

Give the observed outcome of CCCCC(CC)CO (centres undefined) for thyroid hormone receptor (rat, GH3 cells). inactive

# return outcome of CN(C)CCC(c1ccc(Cl)cc1)c1ccccn1 (centres undefined) (system: thyroid hormone receptor (rat, GH3 cells)) inactive

Provide outcome, tested on thyroid hormone receptor (rat, GH3 cells), for `COc1ccc(Cl)cc1C(=O)NCCc1ccc(S(=O)(=O)NC(=O)NC2CCCCC2)cc1` . inactive

# return outcome of `Cc1ccc(N(C)C)cc1` (system: thyroid hormone receptor (rat, GH3 cells)) inactive

Look up and report measured outcome (thyroid hormone receptor (rat, GH3 cells)) for the following compound: CC1=CCC2CC1C2(C)C (centres undefined) inactive

Recall the reported outcome of `FC(F)(F)c1ccc(Cl)c(Cl)c1` on thyroid hormone receptor (rat, GH3 cells) and write it down. inactive

More entries:
Enter outcome (test system thyroid hormone receptor (rat, GH3 cells)) for `C[Si](O[Si](C)(C)C)O[Si](C)(C)C` inactive

Provide outcome, tested on thyroid hormone receptor (rat, GH3 cells), for `CC(=O)Nc1cccc(O)c1` . inactive

// fetch outcome; item: `Nc1cc([N+](=O)[O-])ccc1O` ; system: thyroid hormone receptor (rat, GH3 cells) inactive

Reference source for all entries: PubChem BioAssay (Tox21)
